Reference source: PubChem BioAssay (NCI)

The listing below reports GI50 for molecules tested on MDA-MB-435.

// map `C=C1C(=O)O[C@H]2[C@H]1CC/C(COC(=O)CCCCCCCCC(=O)OC/C1=C/CC[C@@]3(C)O[C@H]3[C@H]3OC(=O)C(=C)[C@@H]3CC1)=C\CC[C@@]1(C)O[C@@H]21` to recorded GI50 (system: MDA-MB-435)
2020 nM

Form field - read-out: GI50; system: MDA-MB-435; submitted item: `CCOC(=O)c1ccc(N(CCOS(C)(=O)=O)CCOS(C)(=O)=O)cc1C`
48500 nM

Look up GI50 with MDA-MB-435 for this molecule: `CCOC(=O)/C(=C/c1ccc([N+](=O)[O-])cc1)C(=O)c1ccccc1`
2230 nM

Form: Entry = `COc1ccc(N(CC(=O)NCCC[Te]c2ccccc2)C(=O)CCSC2=C(C)C(=O)c3ccccc3C2=O)cc1` | System = MDA-MB-435 | GI50 = ____
2670 nM
